ASSAYED_TARGET: Mitogen-activated protein kinase 10 (Mus musculus) (UniProt Q61831)
ASSAY_PROCEDURE: JNK3 AlphaScreen Assay (AID 530);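 note: kinase came from lysate of stimulated human HepG2 cells; signal reports phosphorylation of biotinylated GST-cJun 1-79 at Ser73 with 10 µM ATP; % is set by controls: 0 for no effect and ±100 for the full control effect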
EXPERIMENTAL_PARAMETERS: JNK3 lysate, c-Jun phosphorylation; series mostly up to 57.1 µM
Records with an inconclusive call do not appear. Activity calls are given as the source filed them. Calls come from the whole dose curve; as a rule, active = well fitted curve in either direction with a large enough effect (not every such curve was filed as active); inconclusive = small, poorly fitted or top-dose-only effect, or another doubt; inactive = flat fitted curve, though single readings scatter.
QUANTITY: outcome

Known results for compounds:
FC(F)(F)c1ccccc1-c1nccc(NCCN2CCOCC2)n1 :: inactive
O=c1cnc2cnc(Oc3cccc(Cl)c3)nc2n1CCc1ccccc1 :: inactive
COc1ccc(C(=O)N2CCC3(CCN(CC(C)C)CC3)CC2)cc1 :: inactive
COc1ccc(-n2c(=O)c(-c3ccccc3)nc3cncnc32)cc1 :: inactive
c1ccc(Nc2ncncc2-c2ccc3c(c2)OCO3)cc1 :: inactive

Lab note: next compound to report on.
Req: Entry under review: O=c1c(-c2ccccc2)nc2cnc(Oc3cccc(Cl)c3)nc2n1C1CC1 . Reported outcome?
Resp: inactive

====

ASSAY_PROCEDURE: NFAT Signaling Pathway (AID 444);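 note: carbachol stimulus at about its EC50 of 1 µM final; % is set by controls: 0 for no effect and ±100 for the full control effect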
EXPERIMENTAL_PARAMETERS: Jurkat NFAT-bla M1, carbachol, beta-lactamase ratio, 5 h; at 7.69 µM (top of the series) unless noted
Records with an inconclusive call do not appear. Activity calls are given as the source filed them. Calls come from the whole dose curve; as a rule, active = well fitted curve in either direction with a large enough effect (not every such curve was filed as active); inconclusive = small, poorly fitted or top-dose-only effect, or another doubt; inactive = flat fitted curve, though single readings scatter.
Known activity change, negative = inhibition of a selection of molecules

Record excerpt, results attached:
COc1ccccc1-c1nc(NCCN2CCOCC2)c2ccccc2n1 :: -28.2% (inactive)
Fc1ccc(Nc2nc(-c3ccoc3)nc3ccccc23)cc1 :: -21.4% (inactive)
CS(=O)(=O)N1CCC2(CCCN(c3cccc(-c4ccccc4)c3)C2)CC1 :: 0.269% (inactive)
COc1cccc(Cn2c(=O)c(-c3ccccc3)nc3cnc(OC)nc32)c1 :: -17.4% (inactive)
N#CCCn1c(=O)c(-c2cccs2)nc2cnc(Nc3ccccc3)nc21 :: -22.7% (inactive)
CS(=O)(=O)Nc1cccc(-c2nccc(Nc3ccc(F)cc3)n2)c1 :: 2.44% (inactive)

Req: I have this molecule here, O=c1c(CCc2ccccc2)nc2cnc(N3CCOCC3)nc2n1CCc1ccccc1 , and I need its recorded activity change, negative = inhibition.
Resp: 6.88% (inactive)

Req: # query: activity change, negative = inhibition of entry COCCn1c(=O)c(CCc2ccccc2)nc2cnc(N3CCOCC3)nc21
Resp: -12.9% (inactive)

Req: Param item = COCCn1c(=O)c(-c2cccs2)nc2cnc(OCc3ccccc3)nc21 ; retrieve measured activity change, negative = inhibition.
Resp: 4.34% (inactive)

Req: Fill blank: measured activity change, negative = inhibition of the molecule O=C(O)/C=C\c1ccc(Cn2ccnc2)cc1 is ____.
Resp: -0.213% [at 17.2 µM] (inactive)

Req: Give its activity change, negative = inhibition value. Item: O=c1c(-c2cccc(F)c2)nc2cncnc2n1C1CC1
Resp: -1.62% (inactive)

Req: So what does the record say about activity change, negative = inhibition for COCCNc1ccnc(-c2ccccc2C)n1 ?
Resp: 3.48% (inactive)

====

ASSAYED_TARGET: Cytochrome P450 1A2 (Homo sapiens) (UniProt P05177)
Sequence (P05177 whole entry, looked up): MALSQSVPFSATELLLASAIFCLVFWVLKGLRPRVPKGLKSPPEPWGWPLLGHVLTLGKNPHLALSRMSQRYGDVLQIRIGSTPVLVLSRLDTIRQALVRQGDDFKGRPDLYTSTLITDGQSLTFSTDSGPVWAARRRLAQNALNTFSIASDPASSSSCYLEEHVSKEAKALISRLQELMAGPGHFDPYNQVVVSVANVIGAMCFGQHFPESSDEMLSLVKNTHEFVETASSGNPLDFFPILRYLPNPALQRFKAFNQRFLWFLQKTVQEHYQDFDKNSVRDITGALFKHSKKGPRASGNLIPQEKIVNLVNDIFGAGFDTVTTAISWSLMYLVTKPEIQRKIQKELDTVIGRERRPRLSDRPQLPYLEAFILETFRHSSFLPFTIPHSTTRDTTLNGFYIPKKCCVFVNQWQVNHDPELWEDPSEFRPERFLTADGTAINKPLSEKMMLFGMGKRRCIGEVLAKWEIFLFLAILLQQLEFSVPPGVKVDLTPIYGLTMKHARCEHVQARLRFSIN
ASSAY_PROCEDURE: p450-cyp1a2 (AID 410)
EXPERIMENTAL_PARAMETERS: recombinant CYP1A2, luciferin-ME demethylation, luminescence; series mostly up to 57 µM
Records with an inconclusive call do not appear. Activity calls are given as the source filed them. Calls come from the whole dose curve.
Answer with one of the outcomes given here: active, inactive

Some solved entries appear below for comparison.
COc1ccccc1CN1CCC2(CC1)CCN(S(C)(=O)=O)CC2 :: inactive
COc1ccccc1CNc1nc(-c2ccc3c(c2)OCO3)nc2ccccc12 :: active
C[C@@]12CCC(=O)C=C1CC[C@H]1[C@H]3CC[C@](O)(C(=O)CO)[C@]3(C)CC(=O)[C@@H]12 :: inactive
Cc1noc(C)c1-c1nc(NCc2cccs2)c2ccccc2n1 :: active
CN=C1N[C@H](c2ccccc2)N(c2ccccc2)S1 :: active

Next molecule, please.
Req: Tell me the assay call for COc1cccc(-c2cc(NCc3cccnc3)ncn2)c1 please.
Resp: active

====

Test system: CP238
ASSAY_PROCEDURE: qHTS profiling for inhibitors of Plasmodium falciparum proliferation (AID 504749); note: nearly all actives have a fitted effect of over 60% in size; note: potency is the fitted concentration of half-maximal effect
EXPERIMENTAL_PARAMETERS: P. falciparum in erythrocytes, SYBR Green DNA, 72 h; series mostly up to 12.8 µM
Results filed as inconclusive are left out. The source made the active and inactive calls. Calls come from the whole dose curve; as a rule, active = well fitted inhibition curve with a large enough effect; inconclusive = small, poorly fitted or top-dose-only effect; inactive = flat fitted curve, though single readings scatter.
QUANTITY: Potency

Study these solved cases before continuing.
NC(=O)OC[C@H](O)COc1ccc(Cl)cc1 :: inactive
CCC[C@H]1C(=O)N2C(N(C)C)=Nc3ccc(C)cc3N2C1=O :: inactive
CC(C)NC[C@H](O)c1cc(O)cc(O)c1 :: inactive
Cc1cc(/C=C\c2ccc3cc(N(C)C)ccc3[n+]2C)c(C)n1-c1ccccc1 :: 1580 nM (active)

Req: If you can, please state the reported Potency value of O=C(O)/C=C\c1ccc(Cn2ccnc2)cc1 .
Resp: inactive

Req: Item CCN(CC)CC#CCOC(=O)[C@@](O)(c1ccccc1)C1CCCCC1 has what recorded Potency?
Resp: inactive

Req: State the recorded Potency for this entry: CN(N=O)C(=O)N[C@H]1[C@@H](O)[C@H](O)[C@H](CO)O[C@@H]1O
Resp: inactive

Req: Fill in: Potency of NC(=O)c1cc[n+](CC2=C(C(=O)O)N3C(=O)[C@@H](NC(=O)[C@H](c4ccccc4)S(=O)(=O)[O-])[C@@H]3SC2)cc1 is ___
Resp: 3550 nM (active)

Req: For CC(C)(O/N=C(\C(=O)N[C@@H]1C(=O)N2C(C(=O)[O-])=C(C[n+]3ccccc3)CS[C@@H]12)c1csc(N)n1)C(=O)O , what is its reported Potency?
Resp: inactive

Req: Tell me the measured Potency of CCN1C(=O)N[C@@H](c2ccccc2)C1=O , please.
Resp: inactive

====

ASSAYED_TARGET: Dual specificity protein kinase CLK4 (Homo sapiens) (UniProt Q9HAZ1)
Sequence (Q9HAZ1 whole entry, looked up): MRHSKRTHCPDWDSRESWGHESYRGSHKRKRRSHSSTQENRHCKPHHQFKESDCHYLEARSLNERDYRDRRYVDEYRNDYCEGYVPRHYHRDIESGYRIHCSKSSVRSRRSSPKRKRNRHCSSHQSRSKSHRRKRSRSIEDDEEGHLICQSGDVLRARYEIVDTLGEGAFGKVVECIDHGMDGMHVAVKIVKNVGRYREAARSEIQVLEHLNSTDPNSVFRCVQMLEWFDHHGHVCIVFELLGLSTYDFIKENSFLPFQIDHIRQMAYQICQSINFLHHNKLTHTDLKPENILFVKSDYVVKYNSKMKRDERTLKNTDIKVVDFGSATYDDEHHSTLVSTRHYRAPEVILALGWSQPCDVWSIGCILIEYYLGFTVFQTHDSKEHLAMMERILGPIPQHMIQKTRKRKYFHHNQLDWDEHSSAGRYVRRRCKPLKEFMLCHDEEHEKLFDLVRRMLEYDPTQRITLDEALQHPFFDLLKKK
ASSAY_PROCEDURE: qHTS Assay for Inhibitors of CDC-like Kinase 4 (Kinase-Glo Assay) (AID 1770); note: nearly all actives have a fitted effect of over 65% in size; note: potency is the fitted concentration of half-maximal effect
EXPERIMENTAL_PARAMETERS: recombinant Clk4, Kinase-Glo ATP depletion luminescence; series mostly up to 66.7 µM
Results filed as inconclusive are left out. Active and inactive are the calls of the source. The call rests on the fitted dose curve; in most records, active means well fitted inhibition curve with a large enough effect; inconclusive means small, poorly fitted or top-dose-only effect; inactive means flat fitted curve, though single readings scatter.
QUANTITY: Potency

CN(C)c1ncc2nc(CCc3ccccc3)c(=O)n(C3CC3)c2n1 :: inactive
CCNc1ncc2nc(-c3ccc(F)cc3)c(=O)n(Cc3ccc(F)cc3)c2n1 :: inactive
N#Cc1ccccc1-c1ccc2ncnc(NCc3ccccc3)c2c1 :: 5.01 µM (active)
O=c1cnc2cnc(Oc3cccc(Cl)c3)nc2n1CCc1ccccc1 :: 2.24 µM (active)
COCCn1c(=O)c(-c2ccc(OC)cc2)nc2cnc(N3CCOCC3)nc21 :: inactive

Now let's try a different one.
Req: I would be grateful if you could share the reported Potency for O=c1c(-c2ccc(Cl)cc2)nc2cnc(N3CCOCC3)nc2n1CCc1ccccc1 .
Resp: inactive

====

ASSAYED_TARGET: Cytochrome P450 3A4 (Homo sapiens) (UniProt P08684)
Sequence (P08684 whole entry, looked up): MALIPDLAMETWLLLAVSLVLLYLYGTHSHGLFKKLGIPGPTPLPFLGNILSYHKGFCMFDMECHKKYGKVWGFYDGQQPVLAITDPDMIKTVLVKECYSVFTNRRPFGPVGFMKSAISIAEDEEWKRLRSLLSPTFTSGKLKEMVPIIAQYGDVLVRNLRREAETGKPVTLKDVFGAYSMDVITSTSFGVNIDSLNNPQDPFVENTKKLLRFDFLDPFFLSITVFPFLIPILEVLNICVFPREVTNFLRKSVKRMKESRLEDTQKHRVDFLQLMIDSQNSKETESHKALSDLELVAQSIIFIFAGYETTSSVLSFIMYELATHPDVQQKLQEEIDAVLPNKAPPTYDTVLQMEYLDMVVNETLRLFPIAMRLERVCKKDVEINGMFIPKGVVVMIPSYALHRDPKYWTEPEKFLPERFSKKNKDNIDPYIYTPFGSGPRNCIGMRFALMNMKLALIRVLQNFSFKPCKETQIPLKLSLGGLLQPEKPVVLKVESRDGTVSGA
ASSAY_PROCEDURE: qHTS Assay for Activators of Cytochrome P450 3A4 (AID 885); note: nearly all actives have a fitted effect of over 65% in size
EXPERIMENTAL_PARAMETERS: recombinant CYP3A4, Luciferin-PPXE luminescence, 60 min; series mostly up to 57.1 µM
Active and inactive are the calls of the source. The call rests on the fitted dose curve; in most records, active means well fitted activation curve with a large enough effect; inconclusive means small, poorly fitted or top-dose-only effect; inactive means no such curve, though single readings can be large or run the other way.
Answer with one of the outcomes 1.0 = active, 0.0 = inactive

Some solved cases for reference:
c1cncc(-c2ccc3ncnc(NC4CCNCC4)c3c2)c1 :: 0.0
CNc1nc(-c2cccc(NS(C)(=O)=O)c2)nc2ccccc12 :: 0.0
COCCn1c(=O)c(-c2cc(F)cc(F)c2)nc2cnc(Nc3cccc(OC)c3)nc21 :: 0.0
CC(=O)NCCNc1nc(-c2ccc(N(C)C)cc2)nc2ccccc12 :: 0.0
COc1ccc(-n2c(=O)c(-c3cccc(F)c3)nc3cncnc32)cc1 :: 0.0
O=C(Nc1cccc(F)c1)N1CC[C@@]2(CCCN(C(=O)c3cc(C(F)(F)F)cc(C(F)(F)F)c3)C2)C1 :: 0.0
COc1cccc(Cn2c(=O)cnc3cnc(Oc4cccc(Cl)c4)nc32)c1 :: 0.0
COCCNc1nc(-c2ccccc2C(F)(F)F)nc2ccccc12 :: 0.0

Req: Please let me know the test result on file for O=c1c(-c2ccccc2)nc2cnc(Nc3ccccc3)nc2n1C[C@H]1CCCO1 .
Resp: 0.0

====

ASSAY_PROCEDURE: qHTS assay for cell viability of HEK293 cells (AID 743288); note: % is set by controls: 0 for no effect and ±100 for the full control effect; nearly all actives have a fitted effect of over 50% in size
EXPERIMENTAL_PARAMETERS: ATP luminescence (CellTiter-Glo), 18 h, active compounds read low
Inconclusive results are not listed.
QUANTITY: max response (%)
Use % as the unit, but write only the number.

COS(C)(=O)=O :: 1.66

Req: I am curious: what max response value has been reported for CC1=CC(=O)CC(C)(C)C1(O)/C=C/C(C)=C\C(=O)O (centres undefined) ?
Resp: 11

Req: Which max response reading was recorded for the molecule CN(C)CCOC(c1ccccc1)c1ccccc1 (tested in a mixture with another compound) ?
Resp: 3.64

Req: Fill blank: measured max response of the molecule Cc1occc(=O)c1O is ____.
Resp: 0.312
